experiment.notes: Metabolic stability in liver microsomes, HLM
measurement.conditions: 1 μM, NADPH
Where a name gives a salt, the structure may show the parent alone.
So basically, if Metabolic stability HLM % remaining in 30 min comes in under 80% it's MET, and if it's 80% or more it's NOT MET.

molecule: O=C(NO)c1ccc(/C=C/C(=O)N2CCC(CNC3CC3c3ccccc3)CC2)cc1 (centres unmarked) [Example 114, TFA Salt]
class.assignment: NOT MET

is_below(Metabolic stability HLM % remaining in 30 min, 80%) for O=C(NO)c1cnc(N2CCn3cc(CNC4CC4c4ccc(F)cc4)nc3C2)nc1 (centres unmarked) [Example 25, TFA Salt] ?
MET

Criterion: Metabolic stability HLM % remaining in 30 min strictly below 80%. Is it met by O=C(/C=C/c1ccc(CNC2CC2c2ccc(OCc3ccc(F)cc3)cc2)cc1)NO (centres unmarked) [Example 3, TFA Salt] ?
MET

Please state whether Metabolic stability HLM % remaining in 30 min is below 80% for O=C(NO)c1cc2c(s1)CCN(C(=O)CN[C@@H]1C[C@H]1c1ccc(F)cc1)C2 [Example 103A, TFA Salt]
NOT MET

Quick check: does COc1ccc(C2CC2NC2CCN(c3ncc(C(=O)NO)cn3)CC2)cc1 (centres unmarked) [Example 19, TFA Salt] have Metabolic stability HLM % remaining in 30 min under 80%?
NOT MET

Take the molecule O=C(/C=C/c1ccc(CNC2CC2c2ccc(F)cc2)cc1)NO (centres unmarked) [Example 2, TFA Salt] and say whether its Metabolic stability HLM % remaining in 30 min is less than 80%.
MET

---

tgt: LSD1 (Homo sapiens (Human), UniProt O60341)
experiment.notes: TR-FRET Assay for LSD1
measurement.conditions: read-out: LSD1 IC50
Counter-ions that a name gives are not always drawn.
Provide the reported pIC50 of each item.
Give bare numbers, as −log10 of the molar value.

The examples below pair each entry with its known result.
compound: O=C(NO)c1ccc(CS(=O)(=O)NCCN2CCC(CNC3CC3c3ccccc3)CC2)cc1 (centres unmarked) [Example 86, TFA Salt]
pIC50: 7.74
--
compound: Nc1ccccc1NC(=O)c1ccc(OCCNC2CC2c2ccc(F)cc2)cc1 (centres unmarked) [Example 148, TFA Salt]
pIC50: 7.62
--
compound: Cn1cc(-c2ccc(C3CC3NCC3CN(CCCc4ccc(C(=O)NO)cc4)C3)cc2)cn1 (centres unmarked) [Example 63, TFA Salt]
pIC50: 7.51
--
compound: O=C(NO)c1ccc(CCCN2CCC(CNC3CC3c3ccc(C(=O)N4CCOCC4)cc3)CC2)cc1 (centres unmarked) [Example 53, TFA Salt]
pIC50: 7.66

List the reported pIC50 of each compound below.
1. COc1ccc(C2CC2NCc2cn3c(n2)CN(CCCc2ccc(C(=O)NO)cc2)CC3)cc1 (centres unmarked) [Example 71, TFA Salt]
2. O=C(NO)c1ccc(CCCN2CCC(CNC3CC3c3ccc(-c4cncnc4)cc3)CC2)cc1 (centres unmarked) [Example 61, TFA Salt]
3. O=C(NO)c1ccc(OCCNC2CC2c2ccccc2)cc1 (centres unmarked) [Example 95, TFA Salt]
4. O=C(NO)c1cnc(NCCN2CCC(CNC3CC3c3ccc(F)cc3)CC2)nc1 (centres unmarked) [Example 102, TFA Salt]

5.96
7.92
7.48
7.66
